The entries below are paired with their reported Kd.
Biological target: T1, TAF3 PHD finger
T1 chain: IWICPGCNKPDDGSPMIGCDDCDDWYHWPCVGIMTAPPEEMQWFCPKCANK
Assay: ITC
Where no end group is shown, it is not given here.
// units = µM; emit number, no label

// worked examples, Kd included
[[record]]
binder = "ARTKQTARKSTGGKA (histaminylated glutamine at 5; C-terminal amide (general statement of the peptide synthesis)) [H3Q5his histone H3 tail peptide (ITC and crystal)]"
measured_metric = "Kd"
experimental_result = 7.94

[[record]]
binder = "ARTKQTARKSTGGKA (serotonylated glutamine at 5; C-terminal amide (general statement of the peptide synthesis)) [H3Q5ser histone H3 tail peptide (ITC)]"
measured_metric = "Kd"
experimental_result = 3.79


Which Kd value belongs to ARTKQTARKSTGGKA-NH2 [unmodified histone H3 N-terminal tail peptide (ITC)] ?
21.5
